// reported IC50 per item
Target: Dopamine D2 receptor (rat striatum membrane) (Rattus norvegicus, UniProt P61169)
Construct: Rat striatum was homogenized in 50 mM Tris-hydrochloric acid buffer (pH 7.4); from tissue; host or cells: rat striatum
Sequence (P61169 whole entry): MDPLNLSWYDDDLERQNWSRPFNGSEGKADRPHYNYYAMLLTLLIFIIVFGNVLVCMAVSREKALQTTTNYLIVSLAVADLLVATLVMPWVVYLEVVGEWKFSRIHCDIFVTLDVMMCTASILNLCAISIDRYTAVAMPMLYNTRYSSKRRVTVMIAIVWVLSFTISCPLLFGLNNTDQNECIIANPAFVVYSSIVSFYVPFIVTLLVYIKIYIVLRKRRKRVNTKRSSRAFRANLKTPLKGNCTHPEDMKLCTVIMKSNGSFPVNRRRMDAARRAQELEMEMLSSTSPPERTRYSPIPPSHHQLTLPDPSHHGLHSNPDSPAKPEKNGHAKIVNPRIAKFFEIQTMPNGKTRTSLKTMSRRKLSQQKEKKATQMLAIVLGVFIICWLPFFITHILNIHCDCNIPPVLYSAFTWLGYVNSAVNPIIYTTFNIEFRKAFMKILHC
Assay: Dopamine D2 receptor binding assay ([3H]raclopride)
Details: [3H]raclopride 1 nM, 25° C., 1 hour
property: IC50 (nM)

> print(dat)
                                     smiles  scale.unit  inequality.sign  measured
1  Nc1nc(-c2ccc(F)cc2)c(CCN2CCC(n3cnc4cc(F)ccc43)CC2)s1          nM                >      1000
2  Nc1nc(-c2ccc(F)cc2)c(CCN2CCC(n3nnc4cc(F)ccc43)CC2)s1          nM                =       298
3  Cc1nc(-c2ccc(F)cc2)c(CCN2CCC(n3nnc4cc(F)ccc43)CC2)s1          nM                =       206
4  Nc1nc(-c2ccc(F)cc2)c(CCN2CCC(c3c[nH]c4ccccc34)CC2)s1          nM                =      81.1
5  Cc1nc(-c2ccc(F)cc2)c(CCN2CCC(c3c[nH]c4ccccc34)CC2)s1          nM                =      26.6
6  Nc1nc(-c2ccc(F)cc2)c(CCN2CCC(c3coc4cc(F)ccc34)CC2)s1          nM                =      67.3

====

// reported melting point per item
property: melting point

> print(dat)
                                     smiles       property         measured
1  Nc1nc(-c2ccc(F)cc2)c(CCN2CCC(c3c[nH]c4ccccc34)CC2)s1  melting point  203 to 203.5 °C
2  Fc1ccc(-c2[nH]ncc2CCN2CCC(c3csc4cc(F)ccc34)CC2)cc1  melting point    162 to 163 °C
3  Oc1nc(-c2ccc(F)cc2)c(CCN2CCC(c3coc4cc(F)ccc34)CC2)s1  melting point    186 to 188 °C
4  Fc1ccc(-c2ncncc2CCN2CCC(c3csc4cc(F)ccc34)CC2)cc1  melting point    123 to 124 °C
5  Nc1nc(-c2ccc(F)cc2)c(CCN2CCC(n3cnc4cc(F)ccc43)CC2)s1  melting point    282 to 284 °C

====

Biological target: human D4.2 receptor (Homo sapiens, UniProt P21917, DEL265-296)
Construct: expressed in transfected cells; host or cells: CHO cells (membrane preparation)
Sequence (P21917 with tags, fused parts or gaps DEL265-296): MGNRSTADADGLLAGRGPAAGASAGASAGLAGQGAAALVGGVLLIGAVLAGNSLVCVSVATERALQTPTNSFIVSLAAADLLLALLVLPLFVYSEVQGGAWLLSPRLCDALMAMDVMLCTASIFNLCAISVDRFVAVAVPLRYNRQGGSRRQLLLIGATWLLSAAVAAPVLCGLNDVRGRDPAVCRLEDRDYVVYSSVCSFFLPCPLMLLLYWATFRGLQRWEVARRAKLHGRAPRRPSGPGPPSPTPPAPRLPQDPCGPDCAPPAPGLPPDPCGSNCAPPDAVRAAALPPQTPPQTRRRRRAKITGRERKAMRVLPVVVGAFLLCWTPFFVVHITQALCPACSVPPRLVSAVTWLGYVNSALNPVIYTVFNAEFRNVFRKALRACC
Test: Dopamine D4 receptor binding assay ([3H]spiperone)
Conditions: CHO cell membrane expressing human D4.2 receptor; [3H]spiperone 0.5 nM; 27° C., 2 hours
// reported IC50 per item
property: IC50 (nM)

> print(dat)
                                     smiles  measured
1  Cc1nc(-c2ccc(F)cc2)c(CCN2CCC(c3c[nH]c4ccccc34)CC2)s1       0.4
2  Nc1nc(-c2ccc(F)cc2)c(CCN2CCC(c3coc4cc(F)ccc34)CC2)s1       3.1
3  Nc1nc(-c2ccc(F)cc2)c(CCN2CCC(n3nnc4cc(F)ccc43)CC2)s1       5.5
4  Cc1nc(-c2ccc(F)cc2)c(CCN2CCC(n3nnc4cc(F)ccc43)CC2)s1       2.4
5  Nc1nc(-c2ccc(F)cc2)c(CCN2CCC(n3cnc4cc(F)ccc43)CC2)s1        32
6  Nc1nc(-c2ccc(F)cc2)c(CCN2CCC(c3c[nH]c4ccccc34)CC2)s1         2
